Target: T1, full-length beta-Catenin (Uniprot ID P35222) (Homo sapiens (Human), UniProt P35222 1-781)
T1 construct: also called bCat; B-Catenin
T1 sequence: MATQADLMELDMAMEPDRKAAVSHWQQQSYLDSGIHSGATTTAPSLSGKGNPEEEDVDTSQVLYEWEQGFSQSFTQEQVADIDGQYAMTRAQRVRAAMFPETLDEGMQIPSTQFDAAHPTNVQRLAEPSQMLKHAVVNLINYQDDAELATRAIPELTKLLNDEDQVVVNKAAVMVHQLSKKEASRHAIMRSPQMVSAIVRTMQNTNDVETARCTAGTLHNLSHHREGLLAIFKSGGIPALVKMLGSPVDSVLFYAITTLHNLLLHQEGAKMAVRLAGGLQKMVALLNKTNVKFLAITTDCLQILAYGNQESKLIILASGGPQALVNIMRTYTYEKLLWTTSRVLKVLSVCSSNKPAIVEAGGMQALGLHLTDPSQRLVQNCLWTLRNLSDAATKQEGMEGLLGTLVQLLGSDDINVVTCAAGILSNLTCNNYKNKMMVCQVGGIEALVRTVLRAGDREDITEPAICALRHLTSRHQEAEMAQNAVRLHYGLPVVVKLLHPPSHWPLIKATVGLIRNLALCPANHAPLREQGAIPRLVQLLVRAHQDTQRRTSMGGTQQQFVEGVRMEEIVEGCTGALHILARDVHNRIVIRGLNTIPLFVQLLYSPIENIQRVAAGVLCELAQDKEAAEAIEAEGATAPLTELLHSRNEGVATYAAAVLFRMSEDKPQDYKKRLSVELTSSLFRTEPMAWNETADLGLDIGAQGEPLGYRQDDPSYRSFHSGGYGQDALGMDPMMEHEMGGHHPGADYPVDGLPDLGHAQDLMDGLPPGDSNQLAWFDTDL
Experiment: fluorescence polarization competition; full-length beta-catenin with 5FAM-labeled TCF4 residues 10-53 probe as competitor
Experimental: The plate was incubated protected from light for 60 minutes at 20° C. prior to read. Reads were performed on a CLARIOstar plate reader (BMG Labtech) in duplicate, and data were fitted to a 1:1 binding model with hill slope using an in-house script. All provided concentrations are final concentrations.
Starred links: 1 amine or outer side, 2 acyl side, 3 side chain; linkers in the order of their positions; H or OH if unused. Positions of bridges follow the written chain, without caps; N, C: chain ends. Non-standard residues stand in square brackets, D forms with d. Primed or numbered codes have the meaning given here. B5(17) = 2,2-bis(4-pentenyl)glycine = 2-amino-2-(pent-4-en-1-yl)hept-6-enoic acid, stitching residue, C=CCCCC(CCCC=C)(N[*:1])C(=O)[*:2]; B5(4) = 2,2-bis(4-pentenyl)glycine = 2-amino-2-(pent-4-en-1-yl)hept-6-enoic acid (stitching residue), C=CCCCC(CCCC=C)(N[*:1])C(=O)[*:2]; B5(21) = 2-amino-2-(pent-4-en-1-yl)hept-6-enoic acid, bis(4-pentenyl)glycine (stitching residue), C=CCCCC(CCCC=C)(N[*:1])C(=O)[*:2]; (NHCyPr)AsnR = N4-cyclopropyl-L-asparagine, O=C(C[C@H](N[*:1])C(=O)[*:2])NC1CC1; (NHiPr)AsnR = N4-isopropyl-L-asparagine, CC(C)NC(=O)C[C@H](N[*:1])C(=O)[*:2]; (NHnPr)AsnR = N4-propyl-L-asparagine, CCCNC(=O)C[C@H](N[*:1])C(=O)[*:2]; Bta = N[C@@H](Cc1csc2ccccc12)C(=O)O; αAllylPro = C=CC[C@@]1(C(=O)O)CCCN1; S8 = C=CCCCCCC[C@](C)(N)C(=O)O
Catalogue of binders with associated IC50
Write down the numeric answer in nM and omit the unit.

Here's what some known entries look like.
[[record]]
binder = "XDIXDDAAFNXFXQ (not fully specified; N-terminal Ac; PL3 at 1; B5 at 4; S8 at 11; 2OMeF at 12; BztA at 13; C-terminal NH2; staples PL3(1)-B5(4) and B5(4)-S8(11) by olefin metathesis) [I-550]"
readout_kind = "IC50"
display_unit = "nM"
measured = 30

[[record]]
binder = "Ac-[αAllylPro]DA[B5(21)][(NHCyPr)AsnR]DAAFV[S8]F[Bta]Q-NH2 (staple 1-4, 4-11) [I-538]"
readout_kind = "IC50"
display_unit = "nM"
measured = 5000

[[record]]
binder = "Ac-[αAllylPro]DA[B5(21)][(NHiPr)AsnR]DAAFV[S8]F[Bta]Q-NH2 (staple 1-4, 4-11) [I-535]"
readout_kind = "IC50"
display_unit = "nM"
measured = 5000

[[record]]
binder = "Ac-[αAllylPro]DI[B5(17)]DEAAFN[S8]F[Bta]Q-NH2 (staple 1-4, 4-11) [I-557]"
readout_kind = "IC50"
display_unit = "nM"
measured = 35

[[record]]
binder = "Ac-[αAllylPro]DA[B5(21)][(NHnPr)AsnR]DAAFV[S8]F[Bta]Q-NH2 (staple 1-4, 4-11) [I-537]"
readout_kind = "IC50"
display_unit = "nM"
measured = 5000


Read the next record carefully.
Record Ac-[αAllylPro]DL[B5(4)]DEAAFN[S8]F[Bta]H-NH2 (staple 1-4, 4-11) [I-543] , field IC50: 32

Data provenance: patent US20240116985A1
